Item-by-item account of Kd
# Measured on: human wild type TTR (Homo sapiens (Human))
# Protocol notes: Isothermal titration calorimetry (ITC) of ligands against TTR
# Format: binding
# Run conditions: TTR 2 μM titrated with ligand 25 μM, 25° C., one-to-one binding model; read-out: Kd (ITC)
# Experimental: Calorimetric titrations were carried out on a VP-ITC calorimeter (MicroCal, Northhampton, Mass.). […] Prior to each titration, all samples were degassed for 10 minutes. The initial injection of 3.0 μL was followed by 30 injections of 8.0 μL each (25° C.) to the point that TTR was fully saturated with ligand. Integration of the thermogram after subtraction of blanks yielded a binding isotherm that was analyzed with MicroCal Origin 5.0 software.
Measurement kind: Kd (nM)

Compound: Cc1n[nH]c(C)c1CCCOc1ccccc1F
Measured on: human wild type TTR (Homo sapiens (Human))
Op: =
Number: 321

Compound: CN1C(=N)NC(=O)/C1=C/c1cc(Br)c(O)c(Br)c1
Measured on: human wild type TTR (Homo sapiens (Human))
Op: =
Number: 245

Compound: NCCOCCOCCOc1c(Cl)cc(Nc2ccccc2C(=O)O)cc1Cl
Measured on: human wild type TTR (Homo sapiens (Human))
Op: =
Number: 285

Compound: O=C(c1cc(O)c(O)c([N+](=O)[O-])c1)c1ccccc1F [Ro 41-0960, reference compound]
Measured on: human wild type TTR (Homo sapiens (Human))
Op: =
Number: 184

Compound: NCCOCCOCCNC(=O)c1ccc(-c2c(F)cccc2F)cc1
Measured on: human wild type TTR (Homo sapiens (Human))
Op: >
Number: 3290

Compound: O=C(O)Cc1ccccc1Nc1c(Cl)cccc1Cl [Diclofenac, reference compound]
Measured on: human wild type TTR (Homo sapiens (Human))
Op: =
Number: 370

Compound: O=C(O)c1ccccc1Nc1cc(Cl)c(OCCOCCOCCNC(=S)Nc2ccc3c(c2)C(=O)OC32c3ccc(O)cc3Oc3cc(O)ccc32)c(Cl)c1
Measured on: human wild type TTR (Homo sapiens (Human))
Op: =
Number: 820

Compound: O=C(O)c1ccc(-c2c(F)cccc2F)cc1 [Compound 1, reference compound]
Measured on: human wild type TTR (Homo sapiens (Human))
Op: =
Number: 72.5

###

# Measured on: wild type biotinylated TTR (Homo sapiens (Human))
# Protocol notes: Surface plasmon resonance (SPR) assay for TTR-ligand interaction
# Run conditions: 25° C.; read-out: Kd (SPR, equilibrium / steady state analysis)

Compound: O=C(O)Cc1ccccc1Nc1c(Cl)cccc1Cl [Diclofenac, reference compound]
Kd, nM: 124

###

This document collects pIC50 values reported for TTR (Homo sapiens (Human)).
pIC50: −log10 of the molar value.
Measurement kind: pIC50

Molecule: Oc1nc(O)c2sc3nc(C(F)(F)F)cc(Cc4ccccc4)c3c2n1
Number: 5.25
--
Molecule: Cc1n[nH]c(C)c1CCc1nc2c3ccccc3[nH]c(=S)n2n1 [drawing 73]
Number: 5.88
--
Molecule: Cc1nc2c(C(=O)NCCC(C)C)cnn2c(O)c1Cc1ccccc1F
Number: 4.96
--
Molecule: O=C1NC(=O)/C(=C/c2cccc(C(F)(F)F)c2)S1
Number: 6.09
--
Molecule: CC1=C(CCC(=O)O)C(=O)N2c3ccccc3NC2C1C#N (centres unmarked)
Number: 5.06
--
Molecule: O=C1C(Br)=CC(=NS(=O)(=O)c2ccccc2)C=C1Br
Number: 5.27
--
Molecule: Cc1n[nH]c(C)c1CCCOc1ccccc1F [drawing 61]
Number: 6.53
--
Molecule: O=c1cc(-c2ccc(O)cc2)oc2cc(O)cc(O)c12
Number: 6.19

###

The following molecules are shown together with reported Kd values.
# Measured on: UniProt:P02766
# Protocol notes: Isothermal titration calorimetry (ITC) of ligands against TTR
# Type: binding
# Run conditions: TTR 2 μM titrated with ligand 25 μM; read-out: ITC Kd

Molecule: O=C(O)Cc1ccccc1Nc1c(Cl)cccc1Cl [Diclofenac, reference compound]
Op: =
Kd, nM: 370
//
Molecule: NCCOCCOCCNC(=O)c1ccc(-c2c(F)cccc2F)cc1 [Compound 2]
Op: >
Kd, nM: 3290
//
Molecule: O=C(O)c1ccc(-c2c(F)cccc2F)cc1 [Compound 1, reference compound]
Op: =
Kd, nM: 72.4

###

# Measured on: WT TTR (Homo sapiens (Human), UniProt P02766)
# Protocol notes: Acid-mediated fibril formation assay for TTR amyloidogenesis (turbidity)
# Run conditions: substoichiometric: ligand 3.0 μM, TTR 3.6 μM, monitored over 5 days

Compound: CN1C(=N)NC(=O)/C1=C/c1cc(Br)c(O)c(Br)c1
inhibition of fibril formation: > 75%
//
Compound: O=C(c1cc(O)c(O)c([N+](=O)[O-])c1)c1ccccc1F [Ro 41-0960, reference compound]
inhibition of fibril formation: > 75%
//
Compound: O=C(O)Cc1ccccc1Nc1c(Cl)cccc1Cl [Diclofenac, reference compound]
inhibition of fibril formation: ~55%
//
Compound: Cc1n[nH]c(C)c1CCCOc1ccccc1F
inhibition of fibril formation: > 75%
//
Compound: Cc1n[nH]c(C)c1CCc1nc2c3ccccc3[nH]c(=S)n2n1
inhibition of fibril formation: > 75%

###

# Measured on: UniProtKB P02766
# Protocol notes: Isothermal titration calorimetry (ITC) of ligands against TTR
# Type: binding
# Run conditions: ITC
The threshold is inclusive: TΔS binding entropy of exactly 0.08 kcal/mol counts as true; values below receive false.

Molecule: O=C(c1cc(O)c(O)c([N+](=O)[O-])c1)c1ccccc1F [Ro 41-0960, reference compound]
Measured on: UniProtKB P02766
Assigned label: false
--
Molecule: CN1C(=N)NC(=O)/C1=C/c1cc(Br)c(O)c(Br)c1
Measured on: UniProtKB P02766
Assigned label: true
--
Molecule: O=C(O)Cc1ccccc1Nc1c(Cl)cccc1Cl [Diclofenac, reference compound]
Measured on: UniProtKB P02766
Assigned label: true
--
Molecule: Cc1n[nH]c(C)c1CCCOc1ccccc1F
Measured on: UniProtKB P02766
Assigned label: false
--
Molecule: O=C(O)c1ccc(-c2c(F)cccc2F)cc1 [Compound 1, reference compound]
Measured on: UniProtKB P02766
Assigned label: false
--
Molecule: O=C(O)c1ccccc1Nc1cc(Cl)c(OCCOCCOCCNC(=S)Nc2ccc3c(c2)C(=O)OC32c3ccc(O)cc3Oc3cc(O)ccc32)c(Cl)c1
Measured on: UniProtKB P02766
Assigned label: true

###

# Measured on: WT TTR (Homo sapiens (Human))
# Protocol notes: Acid-mediated fibril formation assay for TTR amyloidogenesis (turbidity)
# Run conditions: ligand 7.2 μM, TTR 3.6 μM, pH 4.4, 37° C., 72 h; no ligand = 100%
Each record here notes measured % fibril formation.

Compound: CC(=O)Nc1ccc(Nc2nc3ccccc3nc2NS(=O)(=O)c2ccc(C)cc2)cc1
% fibril formation / %: 49.43

Compound: O=C1C(Br)=CC(=NS(=O)(=O)c2ccccc2)C=C1Br
% fibril formation / %: 43.25

Compound: Cc1n[nH]c(C)c1CCCOc1ccccc1F [drawing 61]
% fibril formation / %: 0.75

Compound: COc1ccc(/C=N/n2c(S)nnc2C(F)(F)F)cc1O
% fibril formation / %: 0.43

Compound: O=c1c(Oc2ccccc2Cl)c(C(F)(F)F)oc2cc(O)ccc12
% fibril formation / %: 24.36

Compound: CCOc1cc(C2NC(C(=O)O)CS2)cc(Br)c1OCc1ccccc1C (centres unmarked)
% fibril formation / %: 17.57

Compound: O=[N+]([O-])c1cc(O)c(O)c([N+](=O)[O-])c1 [drawing 68]
% fibril formation / %: 1.08

Compound: O=C1NC(=O)/C(=C/c2cccc3ccccc23)S1
% fibril formation / %: 3.22

Compound: O=C1NC(=O)/C(=C/c2ccc(-c3ccc(Cl)c(C(=O)O)c3)o2)S1
% fibril formation / %: 13.90

Compound: O=C(O)Cc1ccccc1Nc1c(O)cccc1Cl
% fibril formation / %: 11.56

Compound: CSC1=NSC2=NC(=O)/C(=C\c3cccc4ccccc34)C(=N)N12
% fibril formation / %: 28.77

Compound: CN1C(=N)NC(=O)/C1=C/c1cc(Br)c(O)c(Br)c1 [drawing 72]
% fibril formation / %: 0.00

Compound: O=C(O)c1cc2nc(-c3ccc(Cl)c(Cl)c3)cc(C(F)(F)F)n2n1
% fibril formation / %: 1.81

Compound: Cc1nc2c(C(=O)NCCC(C)C)cnn2c(O)c1Cc1ccccc1F
% fibril formation / %: 47.39

Compound: O=C1NC(=O)/C(=C/c2ccccc2OCc2ccccc2)S1
% fibril formation / %: 38.38

Compound: O=c1c(Oc2ccccc2Br)coc2cc(O)ccc12
% fibril formation / %: 13.91

Compound: Cc1[nH]c2ccccc2c1C(C#N)(C#N)C1C(=O)c2ccccc2C1=O
% fibril formation / %: 5.77

Compound: Oc1nc(O)c2sc3nc(C(F)(F)F)cc(Cc4ccccc4)c3c2n1
% fibril formation / %: 35.32

Compound: O=C1NC(=O)/C(=C/c2cccc(C(F)(F)F)c2)S1
% fibril formation / %: 1.92

Compound: COc1ccccc1CC(=O)c1ccc(O)cc1O
% fibril formation / %: 9.60

Compound: O=c1cc(-c2ccc(O)cc2)oc2cc(O)cc(O)c12
% fibril formation / %: 10.07

Compound: CC1=C(CCC(=O)O)C(=O)N2c3ccccc3NC2C1C#N (centres unmarked)
% fibril formation / %: 46.24

Compound: Cc1ccccc1/C=C1\SC(=O)NC1=O
% fibril formation / %: 10.44
